Hi there, I'd appreciate the recorded GI50 for every entry that follows.
Test system: KM-20L2
Assay Method Text: NCI tumour cell line growth inhibition, 48 h
Calls of active or inactive are those of the source. Cut-off read from the data, not from the text of the source: active = GI50 up to about 1.1 µM and inactive = higher.

In the examples that follow, each entry is paired with its recorded GI50.
{"columns": ["Molecule", "GI50"],
 "data": [
  ["NCCc1ccc2oc3cc(=O)c4ccccc4c-3nc2c1", "2.75 µM (inactive)"],
  ["C/C(=N/O)c1ccc2c(c1)/C(=N/O)c1cc(/C(C)=N/O)ccc1-2", "17.4 µM (inactive)"],
  ["C=CCc1cc(-c2cc(CC=C)c(O)c(CN(CCCl)CCCl)c2)cc(CN(CCCl)CCCl)c1O", "16.6 µM (inactive)"],
  ["CSc1nc(SC)c2c(C#N)n[nH]c2n1", "> 100 µM (inactive)"]
]}

Please give GI50, item by item, for the list that follows.
1. O=C(N/C(=C\c1ccc2c(c1)OCO2)c1nc2ccccc2[nH]1)c1ccccc1
2. CCN(CC)CCCC(C)Nc1cc(-c2ccccc2)nc2cc(OC)ccc12 (centres undefined)
3. CCCCCCCCCCCCCCCCCCOCC(COCCOCC[N+]1(CCCCCC(=O)[O-])CCCC1)Oc1ncccn1 (centres undefined)
4. CCCCCCCCCCCCCCCC(=O)NCC(COP(=O)([O-])OCC[N+](C)(C)C)OCC (centres undefined)
5. COc1nc(NC2OC(COC(C)=O)C(OC(C)=O)C(OC(C)=O)C2OC(C)=O)c(/N=C/C=N/c2c(NC3OC(COC(C)=O)C(OC(C)=O)C(OC(C)=O)C3OC(C)=O)nc(OC)[nH]c2=O)c(=O)[nH]1 (centres undefined)

33.7 µM (inactive)
2.25 µM (inactive)
1.4 µM (inactive)
4.01 µM (inactive)
> 100 µM (inactive)

###

Tested on: HCT-116
Assay Method Text: NCI tumour cell line growth inhibition, 48 h
The source made the active and inactive calls. Cut-off read from the data, not from the text of the source: active = GI50 up to about 1.1 µM and inactive = higher.
Bench note: report the call from Y (active), N (inactive)

See these solved cases before continuing.
{"columns": ["Compound", "Assigned Category"],
 "data": [
  ["CN1CCN(c2ccc([N+](=O)[O-])c3no[n+]([O-])c23)CC1", "Y"],
  ["CCCNC(=O)C(C)(Cl)C(=O)c1ccccc1O (configuration not stated)", "N"],
  ["Cc1nc2ccc(C(F)(F)F)cc2nc1NCc1ccc(Cl)c(Cl)c1", "N"],
  ["COC(=O)C1(C(=O)OC)Cc2ccc(C)cc2C2=C1C(=O)c1ccccc1C2=O", "N"],
  ["CCCCCCCCCCCCCCCCCCOCC(COCCOCC[N+]1(CCCCCC(=O)[O-])CCCC1)Oc1ncccn1 (configuration not stated)", "N"],
  ["CCOC(=O)/C=C(/CN1C(=O)c2ccccc2C1=O)c1ccccc1", "N"],
  ["C=C1C(=O)O[C@H]2C1C[C@@H](O)[C@@]1(C)OC1CC[C@@]1(C)O[C@H]21 (some centres not stated)", "N"],
  ["O[C@H]1[C@H](O)[C@@H](O)[C@@]2(O)CC[C@@H]1N2", "N"]
]}

Assay result, entry CCOC(=O)CN1C(=O)NC(C)(c2ccccc2)C1=O (configuration not stated) — outcome?
N

Assay result, entry Cn1c(N/N=C/c2ccccc2)nc(-c2ccc3c(c2)OCO3)c(C#N)c1=O — outcome?
N

Assay result, entry CN(C(=O)c1ccco1)C(=S)N1CCN(c2ccccc2)CC1 — outcome?
N

Assay result, entry COC(=O)[C@H](Cc1ccccc1)NC(=O)CCCCCCC(=O)NO — outcome?
N
